Data provenance: patent US4476120A

system: Strept. haemolyticus SS 18; type: cell-based; settings: Brain Heart Infusion, estolate and RV11-RV15 previously hydrolized, unit assumed
measured endpoint: MIC (µg/mL)
Response body: numeric value in µg/mL, unit text excluded.

Write down MIC measured for item CC[C@H]1OC(=O)[C@H](C)[C@@H](O[C@H]2C[C@@](C)(OC)[C@@H](O)[C@H](C)O2)[C@H](C)[C@@H](O[C@@H]2O[C@H](C)C[C@H](N(C)C)[C@H]2O)[C@](C)(O)C[C@@H](C)C(=O)[C@H](C)[C@@H](O)[C@]1(C)O [RV03, erythromycyn-thiazolidin-carboxylate] 1.5

Write down MIC measured for item CCC(=O)O[C@H]1[C@H](O[C@@H]2[C@@H](C)[C@H](O[C@H]3C[C@@](C)(OC)[C@@H](O)[C@H](C)O3)[C@@H](C)C(=O)O[C@H](CC)[C@@](C)(O)[C@H](O)[C@@H](C)C(=O)[C@H](C)C[C@@]2(C)O)O[C@H](C)C[C@@H]1N(C)C [erythromycin estolate, reference compound] 3

Write down MIC measured for item CC[C@H]1OC(=O)[C@H](C)[C@@H](O[C@H]2C[C@@](C)(OC)[C@@H](O)[C@H](C)O2)[C@H](C)[C@@H](O[C@@H]2O[C@H](C)C[C@H](N(C)C)[C@H]2O)[C@](C)(O)C[C@@H](C)C(=O)[C@H](C)[C@@H](O)[C@]1(C)O [erythromycin] 1.5

Write down MIC measured for item CC[C@H]1OC(=O)[C@H](C)[C@@H](O[C@H]2C[C@@](C)(OC)[C@@H](O)[C@H](C)O2)[C@H](C)[C@@H](O[C@@H]2O[C@H](C)C[C@H](N(C)C)[C@H]2O)[C@](C)(O)C[C@@H](C)C(=O)[C@H](C)[C@@H](O)[C@]1(C)O [RV04, erythromycin-S-carboxymethylcysteinate] 1.5

Write down MIC measured for item CC[C@H]1OC(=O)[C@H](C)[C@@H](O[C@H]2C[C@@](C)(OC)[C@@H](O)[C@H](C)O2)[C@H](C)[C@@H](O[C@@H]2O[C@H](C)C[C@H](N(C)C)[C@H]2O)[C@](C)(O)C[C@@H](C)C(=O)[C@H](C)[C@@H](O)[C@]1(C)O [RV05, erythromycin-N-acetylcysteinate] 0.8

Write down MIC measured for item CCC(=O)O[C@H]1[C@H](O[C@@H]2[C@@H](C)[C@H](O[C@H]3C[C@@](C)(OC)[C@@H](O)[C@H](C)O3)[C@@H](C)C(=O)O[C@H](CC)[C@@](C)(O)[C@H](O)[C@@H](C)C(=O)[C@H](C)C[C@@]2(C)O)O[C@H](C)C[C@@H]1N(C)C [RV13] 1.5

----------
system: E. coli SS 06; format: cell-based; conditions: Brain Heart Infusion, estolate and RV11-RV15 previously hydrolized, unit assumed
Record form. Attribute: MIC. Fill in for each entry.
Response body: numeric value in µg/mL, unit text excluded.

Write down MIC measured for item CC[C@H]1OC(=O)[C@H](C)[C@@H](O[C@H]2C[C@@](C)(OC)[C@@H](O)[C@H](C)O2)[C@H](C)[C@@H](O[C@@H]2O[C@H](C)C[C@H](N(C)C)[C@H]2O)[C@](C)(O)C[C@@H](C)C(=O)[C@H](C)[C@@H](O)[C@]1(C)O [RV04, erythromycin-S-carboxymethylcysteinate] 100

Write down MIC measured for item CC[C@H]1OC(=O)[C@H](C)[C@@H](O[C@H]2C[C@@](C)(OC)[C@@H](O)[C@H](C)O2)[C@H](C)[C@@H](O[C@@H]2O[C@H](C)C[C@H](N(C)C)[C@H]2O)[C@](C)(O)C[C@@H](C)C(=O)[C@H](C)[C@@H](O)[C@]1(C)O [RV03, erythromycyn-thiazolidin-carboxylate] 50

Write down MIC measured for item CCC(=O)O[C@H]1[C@H](O[C@@H]2[C@@H](C)[C@H](O[C@H]3C[C@@](C)(OC)[C@@H](O)[C@H](C)O3)[C@@H](C)C(=O)O[C@H](CC)[C@@](C)(O)[C@H](O)[C@@H](C)C(=O)[C@H](C)C[C@@]2(C)O)O[C@H](C)C[C@@H]1N(C)C [erythromycin estolate, reference compound] 50

Write down MIC measured for item CCC(=O)O[C@H]1[C@H](O[C@@H]2[C@@H](C)[C@H](O[C@H]3C[C@@](C)(OC)[C@@H](O)[C@H](C)O3)[C@@H](C)C(=O)O[C@H](CC)[C@@](C)(O)[C@H](O)[C@@H](C)C(=O)[C@H](C)C[C@@]2(C)O)O[C@H](C)C[C@@H]1N(C)C [RV15] 25

Write down MIC measured for item CCC(=O)O[C@H]1[C@H](O[C@@H]2[C@@H](C)[C@H](O[C@H]3C[C@@](C)(OC)[C@@H](O)[C@H](C)O3)[C@@H](C)C(=O)O[C@H](CC)[C@@](C)(O)[C@H](O)[C@@H](C)C(=O)[C@H](C)C[C@@]2(C)O)O[C@H](C)C[C@@H]1N(C)C [RV14] 25

Write down MIC measured for item CC[C@H]1OC(=O)[C@H](C)[C@@H](O[C@H]2C[C@@](C)(OC)[C@@H](O)[C@H](C)O2)[C@H](C)[C@@H](O[C@@H]2O[C@H](C)C[C@H](N(C)C)[C@H]2O)[C@](C)(O)C[C@@H](C)C(=O)[C@H](C)[C@@H](O)[C@]1(C)O [erythromycin] 100

----------
test: Hematic levels in the rat (absorption by oral route); details: 6 hours, 100 mg/kg as erythromycin, average, 100 mg/kg, 360 min
measured endpoint: Hematic levels in the rat (µg/mL)
Response body: numeric value in µg/mL, unit text excluded.

Write down Hematic levels in the rat measured for item CC[C@H]1OC(=O)[C@H](C)[C@@H](O[C@H]2C[C@@](C)(OC)[C@@H](O)[C@H](C)O2)[C@H](C)[C@@H](O[C@@H]2O[C@H](C)C[C@H](N(C)C)[C@H]2O)[C@](C)(O)C[C@@H](C)C(=O)[C@H](C)[C@@H](O)[C@]1(C)O [RV03, erythromycyn-thiazolidin-carboxylate] 0.07

Write down Hematic levels in the rat measured for item CC[C@H]1OC(=O)[C@H](C)[C@@H](O[C@H]2C[C@@](C)(OC)[C@@H](O)[C@H](C)O2)[C@H](C)[C@@H](O[C@@H]2O[C@H](C)C[C@H](N(C)C)[C@H]2O)[C@](C)(O)C[C@@H](C)C(=O)[C@H](C)[C@@H](O)[C@]1(C)O [RV05, erythromycin-N-acetylcysteinate] 0.08

----------
system: E. coli SS 05; format: cell-based; details: Brain Heart Infusion, estolate and RV11-RV15 previously hydrolized, unit assumed
Record form. Attribute: MIC. Fill in for each entry.
Give the number first and the unit second.

Write down MIC measured for item CCC(=O)O[C@H]1[C@H](O[C@@H]2[C@@H](C)[C@H](O[C@H]3C[C@@](C)(OC)[C@@H](O)[C@H](C)O3)[C@@H](C)C(=O)O[C@H](CC)[C@@](C)(O)[C@H](O)[C@@H](C)C(=O)[C@H](C)C[C@@]2(C)O)O[C@H](C)C[C@@H]1N(C)C [erythromycin estolate, reference compound] 100 µg/mL

Write down MIC measured for item CCC(=O)O[C@H]1[C@H](O[C@@H]2[C@@H](C)[C@H](O[C@H]3C[C@@](C)(OC)[C@@H](O)[C@H](C)O3)[C@@H](C)C(=O)O[C@H](CC)[C@@](C)(O)[C@H](O)[C@@H](C)C(=O)[C@H](C)C[C@@]2(C)O)O[C@H](C)C[C@@H]1N(C)C [RV14] 50 µg/mL

Write down MIC measured for item CC[C@H]1OC(=O)[C@H](C)[C@@H](O[C@H]2C[C@@](C)(OC)[C@@H](O)[C@H](C)O2)[C@H](C)[C@@H](O[C@@H]2O[C@H](C)C[C@H](N(C)C)[C@H]2O)[C@](C)(O)C[C@@H](C)C(=O)[C@H](C)[C@@H](O)[C@]1(C)O [RV01, erythromycin alpha-mercaptosuccinate] 50 µg/mL

Write down MIC measured for item CCC(=O)O[C@H]1[C@H](O[C@@H]2[C@@H](C)[C@H](O[C@H]3C[C@@](C)(OC)[C@@H](O)[C@H](C)O3)[C@@H](C)C(=O)O[C@H](CC)[C@@](C)(O)[C@H](O)[C@@H](C)C(=O)[C@H](C)C[C@@]2(C)O)O[C@H](C)C[C@@H]1N(C)C [RV11] 100 µg/mL

Write down MIC measured for item CCC(=O)O[C@H]1[C@H](O[C@@H]2[C@@H](C)[C@H](O[C@H]3C[C@@](C)(OC)[C@@H](O)[C@H](C)O3)[C@@H](C)C(=O)O[C@H](CC)[C@@](C)(O)[C@H](O)[C@@H](C)C(=O)[C@H](C)C[C@@]2(C)O)O[C@H](C)C[C@@H]1N(C)C [RV15] 100 µg/mL
